// data source = ChEMBL document CHEMBL5131413

Test system: MCF7
Assay summary: Cytotoxicity against human MCF7 cells measured after 24 hrs by MTT assay
Format: functional, cell-based
Condition info: MCF7, 24 h
Task for the reader: assign each of the following compounds its reported IC50.
Answers are plain numbers, in µM.

O=c1cc(-c2ccc(O)c(-c3c(O)cc(O)c4c(=O)cc(-c5ccc(O)cc5)oc34)c2)oc2cc(O)cc(O)c12 [AMENTOFLAVONE] | 75.4
COc1cc(O)c2c(=O)cc(-c3ccc(O)c(-c4c(O)cc5oc(-c6ccc(O)cc6)cc(=O)c5c4OC)c3)oc2c1 | 6.9
O=C1C[C@H](c2ccc(Oc3cc(-c4cc(=O)c5c(O)cc(O)cc5o4)ccc3O)cc2)Oc2cc(O)cc(O)c21 | 7.7

Fill in: MCF7 IC50 for O=c1cc(-c2ccc(Oc3cc(-c4cc(=O)c5c(O)cc(O)cc5o4)ccc3O)cc2)oc2cc(O)cc(O)c12 [OCHNAFLAVONE] = 54.5

* * *

System: MCF7
Assay summary: Cytotoxicity against human MCF7 cells measured after 24 hrs by MTT assay
Type: functional, cell-based
Condition info: MCF7, 24 h
Binarize IC50 at 30 µM; below is Fulfilled, at or above is Not fulfilled.

O=c1[nH]cc(F)c(=O)[nH]1 | Fulfilled
O=C1CC(c2ccc(O)c(-c3c(O)cc4c(c3O)C(=O)CC(c3ccc(O)cc3)O4)c2)Oc2cc(O)cc(O)c21 (stereo unspecified) | Not fulfilled
COc1ccc(-c2cc(=O)c3c(O)cc(O)c(-c4cc(-c5cc(=O)c6c(O)cc(O)cc6o5)ccc4O)c3o2)cc1 | Not fulfilled
COc1ccc(-c2cc(=O)c3c(O)cc(O)cc3o2)cc1-c1c(O)cc(O)c2c(=O)cc(-c3ccc(O)cc3)oc12 | Fulfilled
Cc1c(O)cc2c(c1O)C(=O)C[C@H](c1ccc(Oc3cc(-c4cc(=O)c5c(O)cc(O)cc5o4)ccc3O)cc1)O2 | Not fulfilled

Decide: IC50 of "COc1cc(O)c2c(=O)cc(-c3ccc(O)c(-c4c(O)cc(O)c5c(=O)cc(-c6ccc(O)cc6)oc45)c3)oc2c1" strictly below 30 µM?
Not fulfilled
